# Experimental protocol: INK128 plasma pharmacokinetic study
# Type: in vivo, ICR mice
# Condition notes: female, ICR, mouse, plasma, po, 3 mg/kg, 3 mg/kg oral gavage, single dose
Measured endpoint: Cmax (nM)
Write the number in nM without appending the unit.

Cmax in this record for CC(C)n1nc(-c2ccc3oc(N)nc3c2)c2c(N)ncnc21 : 2030

---

# Experimental protocol: INK128 plasma pharmacokinetic study
# Type: in vivo, ICR mice
# Condition notes: female, ICR, mouse; 3 mg/kg oral gavage, single dose, plasma
Measured endpoint: half-life
Could you kindly put the unit after your number?

half-life in this record for CC(C)n1nc(-c2ccc3oc(N)nc3c2)c2c(N)ncnc21 : 1.81 h

---

# Experimental protocol: INK128 plasma pharmacokinetic study
# Format: in vivo, ICR mice
# Condition notes: female, ICR, mouse, plasma, po, 3 mg/kg, 3 mg/kg oral gavage, single dose
Measured endpoint: Tmax

Tmax in this record for CC(C)n1nc(-c2ccc3oc(N)nc3c2)c2c(N)ncnc21 [INK128] : ≤ 15 min
